All values here come from the Kinase Knowledgebase extract (Sharma et al. 2016).

SYSTEM_TESTED: PIK3CD (Human) (UniProt O00329)
Sequence (O00329 whole entry, looked up): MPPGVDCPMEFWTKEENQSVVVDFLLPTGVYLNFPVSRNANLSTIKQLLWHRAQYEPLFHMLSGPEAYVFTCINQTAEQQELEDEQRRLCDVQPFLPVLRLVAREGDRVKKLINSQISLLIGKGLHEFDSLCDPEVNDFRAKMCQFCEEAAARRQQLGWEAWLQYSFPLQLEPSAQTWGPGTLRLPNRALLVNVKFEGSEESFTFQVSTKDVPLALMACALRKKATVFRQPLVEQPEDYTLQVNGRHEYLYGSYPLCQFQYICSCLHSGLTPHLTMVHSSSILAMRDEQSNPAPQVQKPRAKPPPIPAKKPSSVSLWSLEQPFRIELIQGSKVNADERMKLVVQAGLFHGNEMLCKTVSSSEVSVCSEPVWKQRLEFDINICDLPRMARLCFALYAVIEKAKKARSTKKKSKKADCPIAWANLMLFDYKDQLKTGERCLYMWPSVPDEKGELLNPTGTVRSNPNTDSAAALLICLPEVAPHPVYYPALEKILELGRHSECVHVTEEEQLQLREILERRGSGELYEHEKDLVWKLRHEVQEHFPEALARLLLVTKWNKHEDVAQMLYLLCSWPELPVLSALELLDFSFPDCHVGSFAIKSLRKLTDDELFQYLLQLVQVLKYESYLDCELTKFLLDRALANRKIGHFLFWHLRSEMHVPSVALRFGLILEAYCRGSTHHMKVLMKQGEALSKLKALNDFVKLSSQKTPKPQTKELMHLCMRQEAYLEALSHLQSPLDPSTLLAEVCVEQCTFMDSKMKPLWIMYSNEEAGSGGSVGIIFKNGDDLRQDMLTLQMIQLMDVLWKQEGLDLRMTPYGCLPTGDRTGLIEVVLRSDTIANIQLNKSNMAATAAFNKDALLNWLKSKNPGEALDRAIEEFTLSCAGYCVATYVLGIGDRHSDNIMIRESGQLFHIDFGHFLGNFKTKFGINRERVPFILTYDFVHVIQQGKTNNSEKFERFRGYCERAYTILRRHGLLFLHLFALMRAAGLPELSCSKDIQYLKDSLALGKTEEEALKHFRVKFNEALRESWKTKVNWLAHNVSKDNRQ
Note to self: use met only for IC50 readings below 300 nM; a reading exactly at 300 nM still gets not met.

MOLECULE: Nc1cc(C(F)(F)F)c(-c2cc(N3CCOC(c4ccccc4)C3)nc(N3CCOCC3)n2)cn1 (stereo not given)
ASSIGNED_LABEL: not met

MOLECULE: Nc1ncc(-c2cc(N3C(=O)OC[C@@H]3CO)nc(N3CCOCC3)n2)c(C(F)(F)F)n1
ASSIGNED_LABEL: met

MOLECULE: Nc1cc(C(F)(F)F)c(-c2cc(N3CCS(=O)(=O)CC3)nc(N3CCOCC3)n2)cn1
ASSIGNED_LABEL: not met

Let's switch to this molecule now.
Q: Here's an entry: Nc1cc(C(F)(F)F)c(-c2cc(N3CCN(c4ccccc4)C3=O)nc(N3CCOCC3)n2)cn1 . Is its IC50 below 300 nM?
Ans: met

----------
Observed pIC50 for PIK3CG (human) (UniProt P48736), reported per entry below.
Would you please state pIC50, meaning minus log10 of the concentration in mol/L, as a bare number?

ITEM_SMILES: Nc1cc(C(F)(F)F)c(-c2cc(N3CCCCC3=O)nc(N3CCOCC3)n2)cn1
ENDPOINT_NAME: pIC50
OBSERVED_VALUE: 5.28

Moving on to the next compound.
Q: Supply reported pIC50 belonging to this compound: Nc1cc(C(F)(F)F)c(-c2cc(N3CCS(=O)(=O)CC3)nc(N3CCOCC3)n2)cn1
Ans: 5.33

----------
SYSTEM_TESTED: PIK3CB (Human)
ENDPOINT_NAME: IC50 (nM)
// units = nM; emit number, no label

Q: Give reported IC50 for C[C@H]1[C@@H](CC(C)(C)O)OC(=O)N1c1cc(-c2cnc(N)nc2C(F)(F)F)nc(N2CCOCC2)n1.C[C@H]1[C@H](CC(C)(C)O)OC(=O)N1c1cc(-c2cnc(N)nc2C(F)(F)F)nc(N2CCOCC2)n1 (PIK3CB (Human))
Ans: 124

----------
Reported pIC50 for target or system PIK3CA (human) (UniProt P42336), by entry.
The read-out pIC50 is expressed as -log10 of concentration in moles per litre.

Example compounds with recorded pIC50:
ITEM_SMILES: C[C@H]1[C@@H](CC(C)(C)O)OC(=O)N1c1cc(-c2cnc(N)nc2C(F)(F)F)nc(N2CCOCC2)n1.C[C@H]1[C@H](CC(C)(C)O)OC(=O)N1c1cc(-c2cnc(N)nc2C(F)(F)F)nc(N2CCOCC2)n1
pIC50: 8.30

ITEM_SMILES: Nc1cc(C(F)(F)F)c(-c2cc(N3CCCCC3=O)nc(N3CCOCC3)n2)cn1
pIC50: 6.90

ITEM_SMILES: Nc1cc(C(F)(F)F)c(-c2cc(N3CCC(=O)CC3)nc(N3CCOCC3)n2)cn1
pIC50: 6.44

ITEM_SMILES: Nc1ncc(-c2cc(N3C(=O)OC[C@@H]3CO)nc(N3CCOCC3)n2)c(C(F)(F)F)n1
pIC50: 7.68

Q: Enter recorded pIC50 with PIK3CA (human) (UniProt P42336) for Nc1ncc(-c2cc(N3C(=O)O[C@H]4[C@H](O)CC[C@H]43)nc(N3CCOCC3)n2)c(C(F)(F)F)n1 here.
Sequence (P42336 whole entry, looked up): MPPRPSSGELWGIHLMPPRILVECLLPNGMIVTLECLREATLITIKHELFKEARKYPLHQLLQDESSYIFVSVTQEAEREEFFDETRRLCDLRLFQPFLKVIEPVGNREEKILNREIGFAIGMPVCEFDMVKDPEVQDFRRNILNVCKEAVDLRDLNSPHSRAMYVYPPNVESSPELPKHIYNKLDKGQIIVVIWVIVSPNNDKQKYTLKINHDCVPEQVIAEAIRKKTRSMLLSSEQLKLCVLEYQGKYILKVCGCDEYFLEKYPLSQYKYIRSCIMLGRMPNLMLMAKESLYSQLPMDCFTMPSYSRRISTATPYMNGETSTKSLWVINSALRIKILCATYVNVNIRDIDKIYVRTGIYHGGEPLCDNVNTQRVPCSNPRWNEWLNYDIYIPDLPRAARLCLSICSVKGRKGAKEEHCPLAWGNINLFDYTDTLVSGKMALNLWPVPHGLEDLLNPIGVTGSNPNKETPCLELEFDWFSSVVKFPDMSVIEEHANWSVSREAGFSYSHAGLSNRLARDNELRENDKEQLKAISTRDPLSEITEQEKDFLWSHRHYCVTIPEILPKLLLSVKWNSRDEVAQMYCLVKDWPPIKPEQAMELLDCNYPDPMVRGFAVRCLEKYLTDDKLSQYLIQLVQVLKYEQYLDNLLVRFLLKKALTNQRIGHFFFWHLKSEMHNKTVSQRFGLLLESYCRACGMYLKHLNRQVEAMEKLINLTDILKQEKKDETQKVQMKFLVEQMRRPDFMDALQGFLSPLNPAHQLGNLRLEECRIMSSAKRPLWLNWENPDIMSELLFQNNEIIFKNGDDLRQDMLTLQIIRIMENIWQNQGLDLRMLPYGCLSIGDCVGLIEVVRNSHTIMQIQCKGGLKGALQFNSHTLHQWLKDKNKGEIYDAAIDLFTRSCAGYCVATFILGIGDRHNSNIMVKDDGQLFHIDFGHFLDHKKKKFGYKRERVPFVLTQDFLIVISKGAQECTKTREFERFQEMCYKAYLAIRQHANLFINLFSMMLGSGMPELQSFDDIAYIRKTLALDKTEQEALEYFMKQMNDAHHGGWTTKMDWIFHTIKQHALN
Ans: 8.22
